log10 of TGI values for the compounds below.
# Test system: OVCAR-4 ovarian
# PROTOCOL DETAILS: NCI tumour cell line growth inhibition, 48 h
OBSERVATION TYPE: log10 of TGI (log10 of the value in µM)

COMPOUND | log10 of TGI
N=C(N)SCc1c2ccccc2c(CSC(=N)N)c2ccccc12 | 1.55
O=C(O)c1cc2c(cc1CC(Cc1ccc3c(c1)CCCC3)C(=O)O)CCCC2 (stereo unspecified) | -0.12
O=C(O)c1nc2ccc(C(F)(F)F)cc2nc1NCc1ccc(Cl)c(Cl)c1 | 1.71
CCSc1cc2c(cc1O)CC[C@@H]1[C@@H]2CC[C@]2(C)[C@@H](O)CC[C@@H]12 | 1.59
NC(=O)c1cccc(N=c2oc3ccc(Br)cc3cc2-c2nc3ccccc3[nH]2)c1 | 1.68
